biological target: UniProt:A0A3F3IEK2; assay: Binding affinity to recombinant salmonella enterica threonyl-tRNA synthetase assessed as change in melting temperature at 0.1 mM by fluorescence-based thermal shift assay
Sequence (A0A3F3IEK2 as listed by the source): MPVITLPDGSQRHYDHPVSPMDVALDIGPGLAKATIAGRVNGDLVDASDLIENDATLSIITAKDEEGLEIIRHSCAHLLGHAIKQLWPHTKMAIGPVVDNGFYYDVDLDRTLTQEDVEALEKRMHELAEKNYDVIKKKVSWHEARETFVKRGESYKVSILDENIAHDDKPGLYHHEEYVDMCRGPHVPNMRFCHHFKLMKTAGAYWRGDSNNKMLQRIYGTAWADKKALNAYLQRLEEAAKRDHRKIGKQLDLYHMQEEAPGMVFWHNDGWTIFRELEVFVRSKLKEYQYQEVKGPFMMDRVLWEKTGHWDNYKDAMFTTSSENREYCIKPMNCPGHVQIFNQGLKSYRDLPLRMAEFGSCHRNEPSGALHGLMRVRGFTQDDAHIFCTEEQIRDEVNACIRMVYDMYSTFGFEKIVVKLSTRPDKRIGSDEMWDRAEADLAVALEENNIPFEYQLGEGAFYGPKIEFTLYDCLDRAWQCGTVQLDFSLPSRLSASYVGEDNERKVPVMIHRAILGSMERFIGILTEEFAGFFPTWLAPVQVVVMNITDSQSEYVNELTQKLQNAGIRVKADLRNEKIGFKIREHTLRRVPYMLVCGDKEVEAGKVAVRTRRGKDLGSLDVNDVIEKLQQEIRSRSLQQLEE
QUANTITY_MEASURED: ΔTm (°C)

C[C@@H](O)[C@H](N)C(=O)N[C@@H](CNC(=O)CCn1cnc2cc(Cl)c(Cl)cc2c1=O)c1cccc(-c2ccc(Cl)cc2)c1 :: 20.1

(1) C[C@@H](O)[C@H](N)C(=O)N[C@@H](CNC(=O)CCn1cnc2cc(Cl)c(Cl)cc2c1=O)c1cccc(-c2ccc(C(F)(F)F)cc2)c1
(2) C[C@@H](O)[C@H](N)C(=O)N[C@H](CNC(=O)CCn1cnc2cc(Br)c(Cl)cc2c1=O)c1cccc(-c2ccc3[nH]ncc3c2)c1
In: Lower value for measured ΔTm? Options: 1 , 2 Respond with the label that goes with your answer.
Out: 2

These measurements were taken from ChEMBL document CHEMBL5154832.
